- Tested on: E. coli ATCC 25922, Salmonella Enteritidis, S. aureus ATCC 29213
- assay-comment: Broth microdilution, panel result (at least one / all strains), Example 2
- Assay type: cell-based
- Design: key: *Indicates inhibitory activity
- measurement-parameters: Table 14; against at least one of E. coli ATCC 25922, Salmonella Enteritidis, S. aureus ATCC 29213
Where a SMILES comes first, the peptide text is derived from it.
reported-metric: inhibitory activity (asterisk)

compound: CC[C@H](C)[C@H](NC(=O)CN)C(=O)N[C@@H](CC(C)C)C(=O)N[C@@H](CO)C(=O)NCC(=O)N[C@@H](CC(C)C)C(=O)N[C@@H](CC(C)C)C(=O)NCC(=O)N[C@@H](C)C(=O)NCC(=O)N[C@@H](CCCCN)C(=O)N[C@@H](CCCCN)C(=O)N[C@@H](CC(C)C)C(=O)N[C@@H](C)C(=O)N[C@@H](CS)C(=O)NCC(=O)N[C@@H](CC(C)C)C(=O)N[C@H](C(=O)NCC(=O)N[C@@H](CC(C)C)C(=O)N[C@@H](CS)C(=O)O)[C@@H](C)CC [OdTo1] (H-GILSGLLGAGKKLACGLIGLC-OH; N-terminus and C-terminus assumed)
inhibitory activity (asterisk): 153.* GILSGLLGAGKKLACGLIGLC

compound: CC(C)C[C@H](NC(=O)[C@H](CCCCN)NC(=O)[C@H](Cc1c[nH]c2ccccc12)NC(=O)[C@H](CC(C)C)NC(=O)[C@@H](NC(=O)[C@H](CC(C)C)NC(=O)[C@H](Cc1ccccc1)NC(=O)[C@H](CC(C)C)NC(=O)[C@@H](N)CCCCN)[C@@H](C)O)C(=O)N[C@@H](CCCCN)C(=O)N[C@@H](CCCNC(=N)N)C(=O)O [NaVi3, KLFLTLWKLKR] (H-KLFLTLWKLKR-OH; N-terminus and C-terminus assumed)
inhibitory activity (asterisk): 895.* KLFLTLWKLKR

compound: CC[C@H](C)[C@H](NC(=O)[C@H](CCCCN)NC(=O)CNC(=O)[C@H](CC(C)C)NC(=O)[C@H](CC(C)C)NC(=O)CN)C(=O)N[C@@H](CC(C)C)C(=O)NCC(=O)N[C@H](C(=O)NCC(=O)N[C@@H](CCCCN)C(=O)N[C@@H](CCCCN)C(=O)N[C@H](C(=O)N[C@@H](CC(C)C)C(=O)N[C@@H](CS)C(=O)NCC(=O)N[C@H](C(=O)N[C@@H](CO)C(=O)NCC(=O)N[C@@H](CC(C)C)C(=O)N[C@@H](CS)C(=O)O)C(C)C)C(C)C)C(C)C [PeNi9] (H-GLLGKILGVGKKVLCGVSGLC-OH; N-terminus and C-terminus assumed)
inhibitory activity (asterisk): 32.* GLLGKILGVGKKVLCGVSGLC

Attention now shifts to the item below.
Prompt line: Fill in the blank: the reported inhibitory activity (asterisk) of CC[C@H](C)[C@H](NC(=O)CNC(=O)[C@H](CO)NC(=O)[C@@H](NC(=O)[C@H](CC(C)C)NC(=O)CN)[C@@H](C)CC)C(=O)N[C@@H](CC(C)C)C(=O)NCC(=O)N[C@@H](C)C(=O)NCC(=O)N[C@@H](CCCCN)C(=O)N[C@@H](CCCCN)C(=O)N[C@H](C(=O)N[C@@H](CC(C)C)C(=O)N[C@@H](CS)C(=O)O)C(C)C [OdMa9, GLISGILGAGKKVLC] (H-GLISGILGAGKKVLC-OH; N-terminus and C-terminus assumed) is ____.
Response line: 68.* GLISGILGAGKKVLC

###

- Tested on: E. coli ATCC 25922, Salmonella Enteritidis, S. aureus ATCC 29213
- assay-comment: Broth microdilution, panel result (at least one / all strains), Example 2
- Assay type: cell-based
- Set-up: key: *Indicates inhibitory activity
- measurement-parameters: Table 14; against at least one of E. coli ATCC 25922, Salmonella Enteritidis, S. aureus ATCC 29213
Where a SMILES comes first, the peptide text is derived from it.
Would you mind telling me the reported inhibitory activity (asterisk) of each entry?

Use the examples below as a reference point.
molecule: CC[C@H](C)[C@H](NC(=O)CN)C(=O)N[C@@H](CC(C)C)C(=O)N[C@@H](CO)C(=O)NCC(=O)N[C@@H](CC(C)C)C(=O)N[C@@H](CC(C)C)C(=O)NCC(=O)N[C@@H](C)C(=O)NCC(=O)N[C@@H](CCCCN)C(=O)N[C@@H](CCCCN)C(=O)N[C@H](C(=O)N[C@H](C(=O)N[C@@H](CS)C(=O)NCC(=O)N[C@@H](CC(C)C)C(=O)N[C@@H](CO)C(=O)NCC(=O)N[C@@H](CC(C)C)C(=O)N[C@@H](CS)C(=O)O)C(C)C)[C@@H](C)CC [OdMa5] (H-GILSGLLGAGKKIVCGLSGLC-OH; N-terminus and C-terminus assumed)
inhibitory activity (asterisk): 1091.* GILSGLLGAGKKIVCGLSGLC

molecule: CC[C@H](C)[C@H](NC(=O)[C@@H]1CCCN1C(=O)[C@H](CS)NC(=O)[C@H](C)NC(=O)[C@@H](N)Cc1ccccc1)C(=O)NCC(=O)N[C@@H](Cc1ccccc1)C(=O)N[C@@H](Cc1ccccc1)C(=O)N[C@@H](CCCNC(=N)N)C(=O)N[C@@H](CC(C)C)C(=O)N[C@@H](CCCCN)C(=O)N[C@@H](CCCNC(=N)N)C(=O)O [CaCa1, FACPIGFFRLKR] (H-FACPIGFFRLKR-OH; N-terminus and C-terminus assumed)
inhibitory activity (asterisk): 826.* FACPIGFFRLKR

molecule: CC(C)C[C@H](NC(=O)[C@@H](NC(=O)[C@H](Cc1ccccc1)NC(=O)[C@H](C)NC(=O)CN)C(C)C)C(=O)N[C@@H](Cc1c[nH]c2ccccc12)C(=O)NCC(=O)N1CCC[C@H]1C(=O)N[C@H](C(=O)N1CCC[C@H]1C(=O)N[C@@H](CCCNC(=N)N)C(=O)N1CCC[C@H]1C(=O)N[C@@H](CCCNC(=N)N)C(=O)N[C@@H](CCCNC(=N)N)C(=O)N[C@@H](CCCNC(=N)N)C(=O)O)[C@@H](C)O [DiLo1, GAFVLWGPTPRPRRR] (H-GAFVLWGPTPRPRRR-OH; N-terminus and C-terminus assumed)
inhibitory activity (asterisk): 864.* GAFVLWGPTPRPRRR

Next molecule, inhibitory activity (asterisk) to be filled in.
Prompt line: inhibitory activity (asterisk) lookup needed for CC(C)C[C@H](NC(=O)CNC(=O)[C@H](CO)NC(=O)[C@H](CC(C)C)NC(=O)CNC(=O)[C@H](CS)NC(=O)[C@H](CC(C)C)NC(=O)[C@@H](NC(=O)[C@H](CCCCN)NC(=O)[C@H](CCCCN)NC(=O)CNC(=O)[C@@H](NC(=O)CNC(=O)[C@H](CC(C)C)NC(=O)[C@@H](NC(=O)CNC(=O)[C@H](CO)NC(=O)[C@H](CC(C)C)NC(=O)[C@H](CC(C)C)NC(=O)CN)C(C)C)C(C)C)C(C)C)C(=O)N[C@@H](CS)C(=O)O [OdMa7] (H-GLLSGVLGVGKKVLCGLSGLC-OH; N-terminus and C-terminus assumed) , thanks.
Response line: 1093.* GLLSGVLGVGKKVLCGLSGLC

###

Exercise: for every item that follows, state its recorded inhibitory activity (asterisk).
- Tested on: E. coli ATCC 25922, Salmonella Enteritidis, S. aureus ATCC 29213
- assay-comment: Broth microdilution, panel result (at least one / all strains), Example 2
- Assay type: cell-based
- Parameters: key: *Indicates inhibitory activity
- measurement-parameters: Table 14; against at least one of E. coli ATCC 25922, Salmonella Enteritidis, S. aureus ATCC 29213
Where a SMILES comes first, the peptide text is derived from it.

These solved cases illustrate the format of a correct answer.
compound: CC(C)C[C@H](NC(=O)CN)C(=O)N[C@@H](CC(C)C)C(=O)NCC(=O)N[C@@H](CCCCN)C(=O)N[C@H](C(=O)N[C@@H](CC(C)C)C(=O)NCC(=O)N[C@H](C(=O)NCC(=O)N[C@@H](CCCCN)C(=O)N[C@@H](CCCCN)C(=O)N[C@H](C(=O)N[C@@H](CC(C)C)C(=O)N[C@@H](CS)C(=O)O)C(C)C)C(C)C)C(C)C [PeNi4, GLLGKVLGVGKKVLC] (H-GLLGKVLGVGKKVLC-OH; N-terminus and C-terminus assumed)
inhibitory activity (asterisk): 424.* GLLGKVLGVGKKVLC

compound: CC(C)C[C@H](NC(=O)CNC(=O)[C@H](CO)NC(=O)[C@@H](NC(=O)[C@@H](NC(=O)[C@H](CS)NC(=O)[C@H](CC(C)C)NC(=O)[C@@H](NC(=O)[C@H](CCCCN)NC(=O)[C@H](CCCCN)NC(=O)CNC(=O)[C@@H](NC(=O)CNC(=O)[C@H](CC(C)C)NC(=O)[C@@H](NC(=O)[C@H](CCCCN)NC(=O)CNC(=O)[C@H](CC(C)C)NC(=O)[C@H](CC(C)C)NC(=O)CN)C(C)C)C(C)C)C(C)C)C(C)C)C(C)C)C(=O)N[C@@H](CS)C(=O)O [PeNi2] (H-GLLGKVLGVGKKVLCVVSGLC-OH; N-terminus and C-terminus assumed)
inhibitory activity (asterisk): 395.* GLLGKVLGVGKKVLCVVSGLC

compound: CC[C@H](C)[C@H](NC(=O)[C@H](CCCCN)NC(=O)[C@H](CCCCN)NC(=O)CNC(=O)[C@@H](NC(=O)CNC(=O)[C@H](CC(C)C)NC(=O)[C@@H](NC(=O)CNC(=O)[C@H](CO)NC(=O)[C@H](CC(C)C)NC(=O)[C@H](CC(C)C)NC(=O)CN)C(C)C)C(C)C)C(=O)N[C@H](C(=O)N[C@@H](CS)C(=O)NCC(=O)N[C@@H](CC(C)C)C(=O)N[C@@H](CO)C(=O)NCC(=O)N[C@@H](CC(C)C)C(=O)N[C@@H](CS)C(=O)O)C(C)C [OdMa6] (H-GLLSGVLGVGKKIVCGLSGLC-OH; N-terminus and C-terminus assumed)
inhibitory activity (asterisk): 1092.* GLLSGVLGVGKKIVCGLSGLC

compound: CC(C)C[C@H](NC(=O)CNC(=O)[C@@H](NC(=O)[C@@H](NC(=O)CNC(=O)[C@H](CS)NC(=O)[C@H](CC(C)C)NC(=O)[C@@H](NC(=O)[C@H](CCCCN)NC(=O)[C@H](CCCCN)NC(=O)CNC(=O)[C@@H](NC(=O)CNC(=O)[C@H](CC(C)C)NC(=O)[C@@H](NC(=O)[C@H](CCCCN)NC(=O)CNC(=O)[C@H](CC(C)C)NC(=O)[C@H](CC(C)C)NC(=O)CN)C(C)C)C(C)C)C(C)C)C(C)C)[C@@H](C)O)C(=O)N[C@@H](CS)C(=O)O [PeNi1] (H-GLLGKVLGVGKKVLCGVTGLC-OH; N-terminus and C-terminus assumed)
inhibitory activity (asterisk): 363.* GLLGKVLGVGKKVLCGVTGLC

Each compound below has a reported value. Please supply its inhibitory activity (asterisk).
1. CC[C@H](C)[C@H](NC(=O)CN)C(=O)N[C@@H](CC(C)C)C(=O)N[C@@H](CO)C(=O)NCC(=O)N[C@@H](CC(C)C)C(=O)N[C@@H](CC(C)C)C(=O)NCC(=O)N[C@@H](C)C(=O)NCC(=O)N[C@@H](CCCCN)C(=O)N[C@@H](CCCCN)C(=O)N[C@H](C(=O)N[C@H](C(=O)N[C@@H](CS)C(=O)NCC(=O)N[C@@H](CC(C)C)C(=O)N[C@@H](CO)C(=O)NCC(=O)N[C@@H](CCSC)C(=O)N[C@@H](CS)C(=O)O)C(C)C)[C@@H](C)CC [RaOm2] (H-GILSGLLGAGKKIVCGLSGMC-OH; N-terminus and C-terminus assumed)
2. CC[C@H](C)[C@H](NC(=O)[C@H](CC(C)C)NC(=O)[C@H](CCCCN)NC(=O)[C@H](CC(C)C)NC(=O)CNC(=O)CNC(=O)[C@H](CCCCN)NC(=O)[C@@H](NC(=O)[C@H](CC(C)C)NC(=O)[C@H](CCCCN)NC(=O)CNC(=O)[C@@H](NC(=O)[C@H](CC(C)C)NC(=O)CN)C(C)C)C(C)C)C(=O)NCC(=O)N[C@@H](Cc1c[nH]cn1)C(=O)N[C@H](C(=O)N[C@@H](C)C(=O)N[C@@H](CC(N)=O)C(=O)NCC(=O)O)C(C)C [RaSi1] (H-GLVGKLVKGGLKLIGHVANG-OH; N-terminus and C-terminus assumed)
3. CC[C@H](C)[C@H](NC(=O)[C@H](CCCCN)NC(=O)[C@H](CCCCN)NC(=O)CNC(=O)[C@H](C)NC(=O)CNC(=O)[C@H](CC(C)C)NC(=O)[C@H](CC(C)C)NC(=O)CNC(=O)[C@H](CO)NC(=O)[C@H](CC(C)C)NC(=O)[C@H](CC(C)C)NC(=O)CN)C(=O)N[C@H](C(=O)N[C@@H](CS)C(=O)NCC(=O)N[C@@H](CC(C)C)C(=O)N[C@@H](CO)C(=O)NCC(=O)N[C@@H](CCSC)C(=O)N[C@@H](CS)C(=O)O)C(C)C [OdMa3] (H-GLLSGLLGAGKKIVCGLSGMC-OH; N-terminus and C-terminus assumed)
4. CC[C@H](C)[C@H](NC(=O)CNC(=O)[C@H](CO)NC(=O)[C@@H](NC(=O)[C@H](CC(C)C)NC(=O)CN)[C@@H](C)CC)C(=O)N[C@@H](CC(C)C)C(=O)NCC(=O)N[C@@H](C)C(=O)NCC(=O)N[C@@H](CCCCN)C(=O)N[C@@H](CCCCN)C(=O)N[C@H](C(=O)N[C@@H](CC(C)C)C(=O)N[C@@H](CS)C(=O)NCC(=O)N[C@@H](CC(C)C)C(=O)N[C@@H](CO)C(=O)NCC(=O)N[C@@H](CC(C)C)C(=O)N[C@@H](CS)C(=O)O)C(C)C [OdMa10] (H-GLISGILGAGKKVLCGLSGLC-OH; N-terminus and C-terminus assumed)

Response line:
["629.* GILSGLLGAGKKIVCGLSGMC", "2.* GLVGKLVKGGLKLIGHVANG", "59.* GLLSGLLGAGKKIVCGLSGMC", "1094.* GLISGILGAGKKVLCGLSGLC"]
